Reference for the values: patent US20250263370A1

- measurement.description: Beagle dog PK study 1 of Example 101 (propylene glycol-based formulation, IV and PO), with clinical observations
- Assay type: in vivo
- assay.conditions: beagle, dog, plasma, iv, 1 mg/kg, dog PK study 1, IV, 8 h, Test Animal 1; read-out: Plasma concentration

| molecule | unit.spec | concentration at 8 h |
| --- | --- | --- |
| CNC(=O)c1[nH]c(C(=O)NC2CCC2)cc1O[C@@H](C)c1ccccc1 (stereo in doubt) | ng/mL | 15.7 |

###

- measurement.description: Beagle dog PK study 1 of Example 101 (propylene glycol-based formulation, IV and PO), with clinical observations
- Assay type: in vivo
- assay.conditions: beagle, dog, plasma, po, 5 mg/kg, dog PK study 1, oral, Test Animal 3
- Protocol: The purpose of this study was to examine the pharmacokinetics of Example 101 in beagle dogs. […] An oral PK study was also undertaken in Lewis rats—see Experimental Method C. Body weight was recoded prior to dosing, and detailed clinical observations were made prior to dosing and throughout the study, as needed. Subsequently, 17.320 mL Vitamin E TPGS was added, and the solution was vortexed and sonicated. Then, 51.960 mL water was added, and solution was then heated. […]
measured.endpoint: half-life (min)

| molecule | measured.endpoint | measurement |
| --- | --- | --- |
| CNC(=O)c1[nH]c(C(=O)NC2CCC2)cc1O[C@@H](C)c1ccccc1 (stereo in doubt) | half-life | 50.7 |

###

- measurement.description: Beagle dog PK study 1 of Example 101 (propylene glycol-based formulation, IV and PO), with clinical observations
- Assay type: in vivo
- assay.conditions: beagle, dog, plasma, po, 5 mg/kg, dog PK study 1, oral, Test Animal 2

| compound | unit.spec | Tmax |
| --- | --- | --- |
| CNC(=O)c1[nH]c(C(=O)NC2CCC2)cc1O[C@@H](C)c1ccccc1 (stereo in doubt) [Example 101] | min | 30 |

###

- system.under.test: BRD4 BD2 (Homo sapiens (Human))
- measurement.description: NanoBRET bromodomain assay, NanoLuc-BRD4-BD2 fusion in HEK293 cells;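 note: tracer displacement BRET read in transfected cells after 2 h compound exposure at 37 °C, signal in milliBRET units corrected against no-tracer background wells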
- assay.conditions: IC50 for BRD4 BD1 divided by IC50 for BRD4 BD2; qualitative if an IC50 is at the upper limit
measured.endpoint: Fold selectivity

| compound | measured.endpoint | measurement |
| --- | --- | --- |
| CNC(=O)c1[nH]c(C(=O)NC2COC2)cc1O[C@@H](C)c1ccccc1 | Fold selectivity | XX (Fold >50 and ≤200) |
| CNC(=O)c1[nH]c(C(=O)NC2COC2)cc1OC(C)c1ccccc1F (single isomer, unassigned) | Fold selectivity | XX (Fold >50 and ≤200) |
| CCNC(=O)c1cc(OC(C)c2ccc(Cl)cc2F)c(C(=O)NC)[nH]1 (single isomer, unassigned) [Example 42] | Fold selectivity | — (Fold ≥0 and ≤2) |
| CNC(=O)c1[nH]c(C(=O)N[C@@H](C)C(F)(F)F)cc1O[C@@H](C)c1ccccc1 | Fold selectivity | — (Fold ≥0 and ≤2) |
| CCNC(=O)c1cc(OC(C)c2ccc(Cl)cc2)c(C(=O)NC)[nH]1 (single isomer, unassigned) [Example 19] | Fold selectivity | — (Fold ≥0 and ≤2) |
| CCNC(=O)c1cc(OC(C)c2ccc(Br)cc2)c(C(=O)NC)[nH]1 (single isomer, unassigned) [Example 50] | Fold selectivity | — (Fold ≥0 and ≤2) |
